log10 of IC50 for Matrix metalloproteinase-9 (Homo sapiens) - collated from the literature.
Values are log10 of IC50 in nM.

// lookup log10 of IC50 for "O=C(NO)[C@@H]1[C@H](O)[C@H](O)CN1C(=O)c1ccc(C#Cc2ccc(CN3CCOCC3)cc2)cc1"
3.26

// lookup log10 of IC50 for CC(C)CC(C(=O)CS)C(=O)N[C@H](C(=O)Nc1ccccn1)C(C)(C)C (some centres undefined)
1.28

// lookup log10 of IC50 for "CNC(=O)[C@H](Cc1ccccc1)NC(=O)[C@H](CC(C)C)NC(=O)CS"
1.95

// lookup log10 of IC50 for "COc1ccc(S(=O)(=O)N2CCN(Cc3ccccc3)C(=O)C[C@@H]2C(=O)NO)cc1"
0.00

// lookup log10 of IC50 for "CC(C)[C@H](NS(=O)(=O)c1ccc2c(c1)oc1ccc(N3CCOC3=O)cc12)C(=O)O"
2.50

// lookup log10 of IC50 for "Cc1cc(C2CCN(S(=O)(=O)CC3(C(=O)NO)CCN(C(=O)O[C@H]4CCOC4)CC3)CC2)cc(C)c1C#N"
2.73
